molecular target: Luciferin 4-monooxygenase (Photinus pyralis); assay: qHTS profiling assay for firefly luciferase inhibitor/activator using purifed enzyme and Km concentrations of substrates (counterscreen for miR-21 project); conditions: purified FLuc, luminescence inhibition; series mostly up to 57.5 µM; further: nearly all actives have a fitted effect of over 55% in size
Screen size: about 360,000 compounds; about 25,000 (6.9%) were called active. Roughly 9% stayed inconclusive and do not appear here. The call rests on the fitted dose curve; in most records, active means well fitted inhibition curve with a large enough effect; inconclusive means small, poorly fitted or top-dose-only effect; inactive means flat fitted curve, though single readings scatter. Shown is part of a subset that was picked to be rich in actives.
Output constraint: value belongs to True = active, False = inactive

Prompt line: Given Cc1ccc(C(=O)NC(=S)Nc2ccc(N3CCOCC3)cc2)cc1 , state the outcome it received in this test.
Response line: False

Prompt line: Called result for Cc1ccc(NC(=O)NC(=O)c2ccccc2)cc1F
Response line: False

Prompt line: Call for entry Cc1ccccc1NC(=O)Cn1c(=O)n(CCCCC(=O)NCc2ccccc2Cl)c(=O)c2ccccc21 :
Response line: False

Prompt line: Tell me the recorded outcome of this test for Cc1cccc(NC(=S)NC(=O)c2ccc(Br)o2)c1 .
Response line: True

Prompt line: Query: recorded result category for Cc1ccc(C(=O)NC(=S)Nc2ccccc2C)cc1 in this test
Response line: True

Prompt line: Tell me the recorded outcome of this test for Cc1cccc(NC(=O)/C(=C\c2ccco2)NC(=O)c2ccccc2)c1 .
Response line: False

###

target: Luciferin 4-monooxygenase (Photinus pyralis); assay: qHTS profiling assay for firefly luciferase inhibitor/activator using purifed enzyme and Km concentrations of substrates (counterscreen for miR-21 project); settings: purified FLuc, luminescence inhibition; series mostly up to 57.5 µM; further: nearly all actives have a fitted effect of over 55% in size
In all, about 360,000 compounds went through this assay and about 25,000 (6.9%) were called active. Not shown: some 9% with an inconclusive outcome. The call rests on the fitted dose curve; in most records, active means well fitted inhibition curve with a large enough effect; inconclusive means small, poorly fitted or top-dose-only effect; inactive means flat fitted curve, though single readings scatter. For the sample, actives were picked, then their nearest neighbours and some compounds at random.
Outcome (select one): y (active), n (inactive)

Illustrative cases are given below, each with its answer.
CCOc1ccc2nc(NC(=O)CSc3nc4c(c(=O)n(C)c(=O)n4C)n3CC)sc2c1 :: n
CC(CCCc1ccccc1)NC(=O)c1nn(-c2ccc(Cl)cc2)nc1CO (stereo unspecified) :: n
CCOc1cccc(CC(=O)N2CCc3c([nH]c4ccccc34)C2c2ccc(OC)cc2)c1OCC (stereo unspecified) :: n
O=C1N/C(=N\N=C\c2ccco2)SC1Cc1ccc(F)cc1 (stereo unspecified) :: n
COc1ccc(NC(=S)N2N=CCC2c2ccccc2)cc1 (stereo unspecified) :: y
COC(=O)[C@@H](NC(=O)Nc1cc(Cl)ccc1C)C(C)C :: n
CCn1c(SCC(=O)NC2CCCC2)nnc1-c1ccoc1C :: n
Cc1cc2nn(-c3ccc(Cl)cc3)nc2cc1NC(=O)C(C)C :: y

Prompt line: // param item: COc1cccc2c1cc1c(=O)n(CC(=O)N3CCN(c4ccccc4)CC3)nc(C)n12 ; yields the recorded call
Response line: n

Prompt line: What call does the record list for C=CCN1C(=O)C(Cc2cccc(Cl)c2)S/C1=N/N=C/c1ccco1 (stereo unspecified) ?
Response line: n

Prompt line: Status in this test for O=c1cc2nc(-c3ccccc3)nc(SCCOc3ccc(Cl)cc3)n2[nH]1 ?
Response line: n

###

biological target: Luciferin 4-monooxygenase (Photinus pyralis); test: qHTS profiling assay for firefly luciferase inhibitor/activator using purifed enzyme and Km concentrations of substrates (counterscreen for miR-21 project); settings: purified FLuc, luminescence inhibition; series mostly up to 57.5 µM; further: nearly all actives have a fitted effect of over 55% in size
In all, about 360,000 compounds went through this assay and about 25,000 (6.9%) were called active. Not shown: some 9% with an inconclusive outcome. Calls come from the whole dose curve; as a rule, active = well fitted inhibition curve with a large enough effect; inconclusive = small, poorly fitted or top-dose-only effect; inactive = flat fitted curve, though single readings scatter. This excerpt belongs to a sample that is enriched for actives.
Please state which outcome applies, choosing from t = active, f = inactive

COc1cccc(NC(=O)CN2C(=O)c3ccccc3Sc3ncccc32)c1 :: f
CCn1c(CNC(=O)c2ccco2)nnc1SCC(=O)Nc1cccc(F)c1 :: f
COc1ccccc1-c1cc(C(=O)N2CCCCC2)no1 :: t
O=C(Cc1c(F)cccc1Cl)N1CCN(C(=O)c2ccco2)CC1 :: f
Cc1cc(Cl)ccc1OCCCC(=O)NCc1ccncc1 :: f
COc1cc(NC(=O)CSc2nc3nc(C)c(Cc4ccc(C)cc4)c(C)n3n2)cc(OC)c1OC :: f
Cc1cc(Cl)ccc1OCc1nc(-c2ccncc2)no1 :: t
COc1ccccc1OCc1ccc(C(=O)N2CCN(C)CC2)o1 :: f
O=C(CSc1ccc(-c2ccco2)nn1)NCc1ccc2c(c1)OCO2 :: f
Cc1ccc(Cl)cc1N(C)C(=O)Cn1nc(Cc2cccnc2)c2ccccc2c1=O :: f

Prompt line: Write down the call the test reported for this molecule. Item: O=C(Nc1cc(Cl)cc(Cl)c1)c1ccc2c(c1)N(Cc1cccc(Cl)c1)C(=O)c1ccccc1S2=O (configuration not stated)
Response line: f

Prompt line: Outcome? COc1ccc(C(=O)C2CCCN(C(=O)c3cc(C)on3)C2)cc1F (configuration not stated)
Response line: f

Prompt line: Call for entry CCOc1ccc(N(CC)C(=O)c2noc3c2COc2ccc(C)cc2-3)cc1 :
Response line: f

Prompt line: Fill in: this test's call for O=C(CSc1ccc(-c2ccco2)nn1)Nc1cccc(F)c1 is ___
Response line: t

Prompt line: Hey, what did the test say about COc1cc(C(=O)Nc2ccc(OCc3cc(=O)n4ccc(C)cc4n3)cc2)cc(OC)c1OC ?
Response line: f

Prompt line: Call for entry Cc1ccccc1C(=O)NCc1nc(-c2ccc(Cl)cc2)no1 :
Response line: f

Prompt line: Answer briefly: the call reported for COc1ccc(CC(=O)NCCc2sc3nc(-c4ccc(OC)cc4)nn3c2C)cc1 in this assay.
Response line: f
